Test system: fibrin-induced microglia activation
Test: Image-based assay of fibrin-induced microglia activation (HTS and dose response)
Type: cell-based, rat
Conditions: Rattus norvegicus, Microglia, primary HTS, 10 μM, fibrin-stimulated primary microglia; read-out: Fibrin % inhibition

molecule	inhibition at 10 µM [%]
CCCCOC(=O)c1ccc(O)cc1	-16
CC(C)CCC[C@@H](C)[C@H]1CC[C@H]2[C@@H]3CC=C4C[C@@H](O)CC[C@]4(C)[C@H]3CC[C@]12C	4
CC(=O)Oc1ccc(C(c2ccc(OC(C)=O)cc2)c2ccccn2)cc1	10
COc1cc(CNC(=O)CCCC/C=C/C(C)C)ccc1O	-45
Oc1c(I)cc(Cl)c2cccnc12	-11
C=C1/C(=C\C=C2/CCC[C@]3(C)[C@@H]([C@H](C)CCCC(C)(C)O)CC[C@@H]23)C[C@@H](O)C[C@@H]1O	-46
CCOP(=S)(OCC)Oc1nc(Cl)c(Cl)cc1Cl	-7
NCc1ccccc1CC(=O)N[C@@H]1C(=O)N2C(C(=O)O)=C(CSc3nnnn3CC(=O)O)CS[C@H]12 [Ceforanide]	-2
O=C1CCc2cc(OCCCCc3nnnn3C3CCCCC3)ccc2N1	5

* * *

Measured LPS % cell toxicity, listed per entry for reference.
Tested on: primary rat microglia
Assay: Cell toxicity (dead cells, size <150 μm2) in LPS assay
Conditions: primary microglia HTS, LPS stimulation; decreased size (<150 μm^2) as marker of toxicity
Structures can show the parent of a compound that is named as a salt.

compound	LPS % cell toxicity / %
COc1ccccc1N1CCN(CC(O)COc2cccc3ccccc23)CC1 (centres unmarked) [Naftopidil dihydrochloride, reference compound]	0
COP(=O)(OC)C(O)C(Cl)(Cl)Cl (centres unmarked) [Metrifonate]	0
COc1ccc(CCN2CCC(Nc3nc4ccccc4n3Cc3ccc(F)cc3)CC2)cc1	2
COc1c(C)c2c(c(O)c1C/C=C(\C)CCC(=O)OCCN1CCOCC1)C(=O)OC2 [Mycophenolate mofetil, reference compound]	2
O=C(O)c1ccc[n+]([O-])c1	0
CC(=O)OCC(=O)[C@@]1(O)CC[C@H]2[C@@H]3CCC4=CC(=O)CC[C@]4(C)[C@H]3[C@@H](O)C[C@@]21C [Hydrocortisone acetate, reference compound]	4
Cc1nc2ccccc2n1Cc1ccc(Cl)cc1	2
NC(=O)N/N=C/c1ccc([N+](=O)[O-])o1	0
Cc1ncc(COP(=O)([O-])[O-])c(CN(CCN(CC(=O)[O-])Cc2c(COP(=O)([O-])[O-])cnc(C)c2[O-])CC(=O)[O-])c1[O-].[H+].[H+].[H+].[Mn+2].[Na+].[Na+].[Na+] [Mangafodipir Trisodium]	0
Cc1cc(C(C)(C)C)c(O)c(C)c1CC1=NCCN1	0
COC(=O)C[C@](O)(CCCC(C)(C)O)C(=O)O[C@@H]1C(OC)=C[C@]23CCCN2CCc2cc4c(cc2[C@H]13)OCO4	67
CC(=O)OCC(=O)[C@@]1(O)CC[C@H]2[C@@H]3CCC4=CC(=O)C=C[C@]4(C)[C@@]3(F)[C@@H](O)C[C@@]21C [Isoflupredone Acetate]	2
CCN1CCCC1CNC(=O)c1cc(S(=O)(=O)CC)c(N)cc1OC (centres unmarked) [Amisulpride, reference compound]	1
CC12CC3CC(C)(C1)CC(N)(C3)C2 [Memantine]	0
CN(C)CCc1c[nH]c2ccc(CS(=O)(=O)N3CCCC3)cc12 [Almotriptan, reference compound]	1
CC1(C)O[C@@H]2C[C@H]3[C@@H]4C[C@H](F)C5=CC(=O)C=C[C@]5(C)[C@@]4(F)[C@@H](O)C[C@]3(C)[C@]2(C(=O)CO)O1 [Fluocinolone acetonide, reference compound]	4
CN1C(CCl)Nc2cc(Cl)c(S(N)(=O)=O)cc2S1(=O)=O (centres unmarked) [Methyclothiazide]	0
COc1ccnc(C[S+]([O-])c2nc3cc(OC(F)F)ccc3[n-]2)c1OC.[Na+] (centres unmarked) [Pantoprazole, Pantoprazole Sodium Salt]	0
CC(=O)NCc1c(I)c(NC(C)=O)c(I)c(C(=O)O)c1I [Iodamide]	1
COc1ccc2cc([C@H](C)CO)ccc2c1	0
CCCC(=O)O[C@]1(C(=O)CO)CC[C@H]2[C@@H]3CCC4=CC(=O)CC[C@]4(C)[C@H]3[C@@H](O)C[C@@]21C [Hydrocortisone butyrate, reference compound]	2
C[C@]12C/C(=C/O)C(=O)C[C@@H]1CC[C@@H]1[C@@H]2CC[C@@]2(C)[C@H]1CC[C@]2(C)O	0
CC(=O)OCC(=O)[C@@]1(O)CC[C@H]2[C@@H]3CCC4=CC(=O)C=C[C@]4(C)[C@H]3[C@@H](O)C[C@@]21C [Prednisolone acetate, reference compound]	6
Cc1cc2c(cc1S(N)(=O)=O)S(=O)(=O)CCC2	0
O=[N+]([O-])c1ccc([As](=O)(O)O)cc1	0
Cc1ncc([N+](=O)[O-])n1CC(O)CCl (centres unmarked)	0
[H]/N=C(/NCCCCC)N/N=C/c1c[nH]c2ccc(OC)cc12 [Tegaserod maleate, reference compound]	2
CO/N=C1\C[C@]2(C[C@@H]3C[C@@H](C/C=C(\C)C[C@@H](C)/C=C/C=C4\CO[C@@H]5[C@H](O)C(C)=C[C@@H](C(=O)O3)[C@]45O)O2)O[C@H](/C(C)=C/C(C)C)[C@H]1C	1
CN1CCN(C2=Nc3ccccc3Oc3ccc(Cl)cc32)CC1	0

* * *

Test system: fibrin-induced microglia activation
Experiment: Image-based assay of fibrin-induced microglia activation (HTS and dose response)
Type: cell-based, rat
Settings: primary microglia HTS, fibrin stimulation, compounds at 10 μM; 10 µM
Where a name gives a salt, the structure may show the parent alone.
valueKind: Fibrin % inhibition (%)

compound	tgt	unitOfMeasurement	valueMeasured
CN1C[C@H](C(=O)N[C@]2(C)O[C@@]3(O)[C@@H]4CCCN4C(=O)[C@H](Cc4ccccc4)N3C2=O)C=C2c3cccc4[nH]cc(c34)C[C@H]21 [Ergotamine Tartrate]	fibrin-induced microglia activation	%	31
C=C1C[C@@H]2[C@H](CC[C@]3(C)C(=O)CC[C@@H]23)[C@@]2(C)C=CC(=O)C=C12	fibrin-induced microglia activation	%	31
C[C@@H](CO)NC(=O)[C@@H]1C=C2c3cccc4[nH]cc(c34)C[C@H]2N(C)C1	fibrin-induced microglia activation	%	−23
CN1C[C@H](C(=O)N[C@]2(C)O[C@@]3(O)[C@@H]4CCCN4C(=O)[C@H](Cc4ccccc4)N3C2=O)C=C2c3cccc4[nH]cc(c34)C[C@H]21 [Ergotamine]	fibrin-induced microglia activation	%	6
COc1ccc([C@@H]2Sc3ccccc3N(CCN(C)C)C(=O)[C@@H]2OC(C)=O)cc1 [Diltiazem Hydrochloride]	fibrin-induced microglia activation	%	−5
CC1(C)S[C@@H]2[C@H](NC(=O)[C@H](NC(=O)N3CCNC3=O)c3ccccc3)C(=O)N2[C@H]1C(=O)O [Azlocillin Sodium]	fibrin-induced microglia activation	%	−5

* * *

System: fibrin-induced microglia activation
Experiment: Image-based assay of fibrin-induced microglia activation (HTS and dose response)
Assay type: cell-based, rat
Conditions: Rattus norvegicus, Microglia, primary microglia HTS, fibrin stimulation; increased cell size (>800 μm^2) as marker of activation; read-out: Fibrin % inhibition
Structures can show the parent of a compound that is named as a salt.

molecule	inhibition at 10 µM / %
Cc1ccsc1/C=C/C1=NCCCN1C [Morantel Citrate]	-11
CC(C)CCCC(C)N (stereo not shown) [Octodrine]	2
CCCCOc1cc(C(=O)OCCN(CC)CC)ccc1N [Oxybuprocaine]	7
CC(C)NCC(O)c1cc(O)cc(O)c1 (stereo not shown) [Orciprenaline]	15
CO[C@H]1C[C@H](O[C@H]2[C@H](C)[C@@H](O[C@@H]3O[C@H](C)C[C@H](N(C)C)[C@H]3O)[C@@H](C)C[C@@]3(CO3)C(=O)[C@H](C)[C@@H](O)[C@@H](C)[C@@H](C)OC(=O)[C@@H]2C)O[C@@H](C)[C@@H]1O [Oleandomycin Phosphate]	-9
C[C@@H]1C[C@@H]([C@H](O)CC2CC(=O)NC(=O)C2)C(=O)[C@@H](C)C1 [Cycloheximide]	108
O=C(NC(=O)c1c(F)cccc1F)Nc1cc(Cl)c(OC(F)(F)C(F)C(F)(F)F)cc1Cl (stereo not shown) [Lufenuron]	15

* * *

Tested on: LPS-induced microglia activation
Assay: Image-based assay of LPS-induced microglia activation (HTS and dose response)
Assay type: cell-based, rat
Conditions: Rattus norvegicus, Microglia, primary HTS, 10 μM, LPS-stimulated primary microglia; read-out: LPS % inhibition
So basically, the class depends on measured inhibition at 10 µM, and the ranges are low group: < 8%; middle group: ≥ 8% and < 20%; high group: ≥ 20%

compound	group
O=C(OCc1ccccc1)c1ccccc1 [Benzyl Benzoate]	high group
Oc1c(I)cc(Cl)c2cccnc12 [Clioquinol]	high group
CC(C)(Oc1ccc(C2CC2(Cl)Cl)cc1)C(=O)O (centres unmarked) [Ciprofibrate]	middle group
Cc1cc(C2CCCCC2)n(O)c(=O)c1 [Ciclopirox]	high group
O=c1[nH]c(=O)c2ccccc2o1 [Carsalam]	middle group
NC(=O)N1c2ccccc2C=Cc2ccccc21 [Carbamazepine]	low group
CCCCN1CCCCC1C(=O)Nc1c(C)cccc1C (centres unmarked) [Bupivacaine]	high group
CC(C[N+](C)(C)C)OC(N)=O (centres unmarked) [Bethanechol]	middle group
Cc1ccc2c(Br)cc(Br)c(OC(=O)c3ccccc3)c2n1 [Broxaldine]	low group
Nc1nc(Cl)nc2c1ncn2[C@H]1C[C@H](O)[C@@H](CO)O1 [Cladribine]	low group
